system: Collinsella aerofaciens; assay: Antimicrobial activity against Colinsella aerofaciens by Wadsworth agar dilution method; assay type: functional
metric: MIC90 (µg/mL)
Give just the number in µg/mL; leave the unit off.

Guide cases for MIC90, answers given:
[[record]]
compound = "NC[C@@H]1O[C@H](O[C@H]2[C@@H](O)[C@H](O[C@@H]3[C@@H](O)[C@H](N)C[C@H](N)[C@H]3O[C@H]3O[C@H](CN)[C@@H](O)[C@H](O)[C@H]3N)O[C@@H]2CO)[C@H](N)[C@@H](O)[C@@H]1O [FRAMYCETIN]"
unit_of_measurement = "µg/mL"
measurement = 1020

[[record]]
compound = "CC(=O)Oc1ccccc1C(=O)Nc1ncc([N+](=O)[O-])s1 [NITAZOXANIDE]"
unit_of_measurement = "µg/mL"
measurement = 32


Now examine the next entry.
*Q* So what does the record say about MIC90 for CN[C@H](CC(C)C)C(=O)N[C@H]1C(=O)N[C@@H](CC(N)=O)C(=O)N[C@H]2C(=O)N[C@H]3C(=O)N[C@H](C(=O)N[C@H](C(=O)O)c4cc(O)cc(O)c4-c4cc3ccc4O)[C@H](O)c3ccc(c(Cl)c3)Oc3cc2cc(c3O[C@@H]2O[C@H](CO)[C@@H](O)[C@H](O)[C@H]2O[C@H]2C[C@](C)(N)[C@H](O)[C@H](C)O2)Oc2ccc(cc2Cl)[C@H]1O [VANCOMYCIN] ?
*A* 64
